# Method: Assessment of solubility (McIlvaine buffers, 24 h shake, UPLC-UV)
# Assay type: physicochemical
# Experimental context: pH 6.8, aqueous buffer, kinetic from dmso stock
Measured parameter: solubility at 24 h
# output: number + unit

Past entries and their recorded results:
COc1c(C(=O)O)cnn1-c1cccc(-c2cccc(C)c2OCc2ccc3c(c2F)CCN(C2COC2)C3)n1 ... 86 µg/mL
COc1c(C(=O)O)cnn1-c1cccc(-c2cccc(C)c2OCc2ccc3c(c2C)CCN(CC(C)(C)C)C3)n1 ... 75 µg/mL
COc1c(C(=O)O)cnn1-c1cccc(-c2cccc(C)c2OCc2ccc3c(c2C)CCN(C[C@@H]2COCCO2)C3)n1 ... 120 µg/mL

Reported solubility at 24 h for CCOc1c(C(=O)O)cnn1-c1cccc(-c2cccc(C)c2OCc2ccc3c(c2)CCN(CC2CCOC(C)(C)C2)C3)n1 (centres unmarked) was 95 µg/mL

Entry `CCOc1c(C(=O)O)cnn1-c1cccc(-c2cccc(C)c2OCc2ccc3c(c2)CCN(C2CCOCC2)C3)n1` — recorded solubility at 24 h = 87 µg/mL

---

# Method: human liver microsome (HLM) metabolic stability assay
# Type: in vitro ADME
# Experimental context: human liver microsomes; % hepatic blood flow calculated from t1/2
Form field: HLM (% Qh) (one value per entry).

COc1c(C(=O)O)cnn1-c1cccc(-c2cccc(C)c2OCc2ccc3c(c2)CCN([C@H]2CC[C@@]4(CCCO4)CC2)C3)n1 ... 25 % Qh
CC(C)Oc1c(C(=O)O)cnn1-c1cccc(-c2ccccc2OCc2ccc3c(c2)CCN(C2CCOCC2)C3)n1 ... <24 % Qh
COc1c(C(=O)O)cnn1-c1cccc(-c2cccc(C)c2OCc2ccc3c(c2Cl)CCN(C2COC2)C3)n1 ... 31 % Qh
COc1c(C(=O)O)cnn1-c1cccc(-c2cccc(C)c2OCc2ccc3c(c2C)CCN([C@H]2CCOC2)C3)n1 ... <24 % Qh
COc1c(C(=O)O)cnn1-c1cccc(-c2cccc(C)c2OCc2cc(C)c3c(c2)CCN(CC2(C)COC2)C3)n1 ... 25 % Qh
COc1c(C(=O)O)cnn1-c1cccc(-c2cccc(C)c2OCc2ccc3c(c2)CCN(C[C@H]2CCOC2)C3)n1 ... <24 % Qh

Now examine the next entry.
The compound listed as `CCOc1c(C(=O)O)cnn1-c1cccc(-c2cccc(C)c2OCc2ccc3c(c2C)CCN([C@@H]2CCCOC2)C3)n1` shows HLM (% Qh) equal to <24 % Qh

---

List of pEC50 values.
# Tested on: human soluble guanylate cyclase alpha 1 and beta 1 subunits (sGC) (Homo sapiens, UniProt Q02108+Q02153)
# Sequence (Q02108 whole entry): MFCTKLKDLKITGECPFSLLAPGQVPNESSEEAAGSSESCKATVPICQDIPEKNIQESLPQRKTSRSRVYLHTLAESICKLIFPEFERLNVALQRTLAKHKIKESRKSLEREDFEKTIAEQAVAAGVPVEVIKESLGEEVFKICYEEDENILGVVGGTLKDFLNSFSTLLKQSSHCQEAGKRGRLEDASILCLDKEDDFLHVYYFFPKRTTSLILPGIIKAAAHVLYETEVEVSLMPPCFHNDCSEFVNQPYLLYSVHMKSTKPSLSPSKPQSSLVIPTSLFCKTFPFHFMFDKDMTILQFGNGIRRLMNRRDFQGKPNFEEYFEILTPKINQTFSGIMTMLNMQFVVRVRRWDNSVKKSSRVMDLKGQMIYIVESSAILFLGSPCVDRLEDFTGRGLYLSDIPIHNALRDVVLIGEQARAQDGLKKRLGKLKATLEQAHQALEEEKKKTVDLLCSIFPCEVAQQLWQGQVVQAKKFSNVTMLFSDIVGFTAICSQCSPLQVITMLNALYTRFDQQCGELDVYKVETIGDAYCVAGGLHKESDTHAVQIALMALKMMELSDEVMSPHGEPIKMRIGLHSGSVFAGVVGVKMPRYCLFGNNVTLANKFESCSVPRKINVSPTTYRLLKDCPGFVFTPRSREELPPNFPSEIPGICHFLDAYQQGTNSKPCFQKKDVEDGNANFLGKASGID
# Sequence (Q02153 whole entry): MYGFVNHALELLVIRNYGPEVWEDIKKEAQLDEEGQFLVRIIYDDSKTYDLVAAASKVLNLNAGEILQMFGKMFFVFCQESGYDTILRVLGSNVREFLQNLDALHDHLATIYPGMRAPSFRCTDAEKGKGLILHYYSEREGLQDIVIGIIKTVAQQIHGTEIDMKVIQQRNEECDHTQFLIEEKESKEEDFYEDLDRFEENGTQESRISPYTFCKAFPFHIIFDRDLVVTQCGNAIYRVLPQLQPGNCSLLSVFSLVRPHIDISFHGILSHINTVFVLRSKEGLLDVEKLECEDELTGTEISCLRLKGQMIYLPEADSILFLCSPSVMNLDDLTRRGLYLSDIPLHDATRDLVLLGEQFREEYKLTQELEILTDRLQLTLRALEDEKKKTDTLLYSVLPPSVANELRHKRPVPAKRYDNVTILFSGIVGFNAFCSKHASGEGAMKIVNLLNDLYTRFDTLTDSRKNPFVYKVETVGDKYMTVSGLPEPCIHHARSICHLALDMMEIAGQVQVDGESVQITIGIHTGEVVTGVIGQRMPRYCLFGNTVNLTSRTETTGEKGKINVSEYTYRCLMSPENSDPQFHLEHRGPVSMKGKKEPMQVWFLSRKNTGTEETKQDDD
# Method: sGC cellular activator assay (cGMP, HTRF)
# Experimental context: CHO cells stably expressing human sGC alpha 1/beta 1, preincubated with 40 microM ODQ; cGMP readout; assay run with and without 50% human serum, Table 2 does not say which
# pEC50 is unitless: minus log10 of the molar concentration; print number only

Lab book: pEC50 of COCCOc1c(C(=O)O)cnn1-c1cccc(-c2cccc(C)c2OCc2ccc3c(c2C)CCN(C2CCCOC2)C3)n1 (centres unmarked) noted as 7.36

For this compound ( `COc1ccc(OCc2ccc3c(c2C)CCN(C2CCOCC2)C3)c(-c2cccc(-n3ncc(C(=O)O)c3OC)n2)c1` ), measured pEC50 is 6.43

pEC50 recorded for this compound, `COc1c(C(=O)O)cnn1-c1cccc(-c2cccc(C)c2OCc2cc(C)c3c(c2)CCN(C2CCOCC2)C3)n1` , is 7.80

Lab book: pEC50 of `COc1c(C(=O)O)cnn1-c1cccc(-c2cccc(C)c2OCc2ccc3c(c2)C(C)(C)CN(C2CCOCC2)C3)n1` noted as 6.82

# pEC50 (compound: `COc1c(C(=O)O)cnn1-c1cccc(-c2cccc(C)c2OCc2cc(C)c3c(c2C)CN(C2CCOCC2)C3)n1` ) is 7.89

Value of pEC50 reported for the compound COCC(C)N1CCc2c(ccc(COc3c(C)cccc3-c3cccc(-n4ncc(C(=O)O)c4OC(C)C)n3)c2C)C1 (centres unmarked) is 7.36
